# Assay name: Volume of distribution in dog at 1.0 mg/kg, iv or 2 mg/kg, po
# Assay type: ADME, organism-based, Canis lupus familiaris
# Condition details: in vivo
Vd for assorted compounds
Response body: numeric value in L/kg, unit text excluded.

Smiles str: O=C(CCc1nc(-c2ccc(O)cn2)no1)NC1=C(C(=O)O)CCCC1
Measurement unit: L/kg
Measured result: 0.18

Pending compound:
// CC(C)(Cc1nc(-c2ccc(O)cn2)no1)C(=O)NC1=C(C(=O)O)CCCC1 : Vd value = 0.27

###

# Assay name: Bioavailability in mouse at 1.0 mg/kg, iv or 2 mg/kg, po
# Type: ADME, organism-based
# Condition details: in vivo
Experimental endpoint: bioavailability

bioavailability measured on CC(C)(Cc1nc(-c2ccc(O)cn2)no1)C(=O)NC1=C(C(=O)O)CCCC1 = 45%

###

# Assay name: Clearance in mouse at 1.0 mg/kg, iv or 2 mg/kg, po
# Format: ADME, organism-based
# Condition details: in vivo
Experimental endpoint: clearance
Answer with the figure and its unit, nothing else.

Kindly note the recorded clearance for CC(C)(Cc1nc(-c2ccc(O)cn2)no1)C(=O)NC1=C(C(=O)O)CCCC1 , which is 1.3 mL/min/kg
